The values you see were collected from paper PMC7445743.

The compounds listed here are annotated with their remaining binding at 1 µM.
Molecular target: PKNB(M.tuberculosis) (Mycobacterium tuberculosis, UniProt P9WI81)
Construct: purchased DiscoverX (Eurofins) KINOMEscan scanMAX; first lines in-house DSF / ADP-Glo
Sequence (P9WI81 whole entry): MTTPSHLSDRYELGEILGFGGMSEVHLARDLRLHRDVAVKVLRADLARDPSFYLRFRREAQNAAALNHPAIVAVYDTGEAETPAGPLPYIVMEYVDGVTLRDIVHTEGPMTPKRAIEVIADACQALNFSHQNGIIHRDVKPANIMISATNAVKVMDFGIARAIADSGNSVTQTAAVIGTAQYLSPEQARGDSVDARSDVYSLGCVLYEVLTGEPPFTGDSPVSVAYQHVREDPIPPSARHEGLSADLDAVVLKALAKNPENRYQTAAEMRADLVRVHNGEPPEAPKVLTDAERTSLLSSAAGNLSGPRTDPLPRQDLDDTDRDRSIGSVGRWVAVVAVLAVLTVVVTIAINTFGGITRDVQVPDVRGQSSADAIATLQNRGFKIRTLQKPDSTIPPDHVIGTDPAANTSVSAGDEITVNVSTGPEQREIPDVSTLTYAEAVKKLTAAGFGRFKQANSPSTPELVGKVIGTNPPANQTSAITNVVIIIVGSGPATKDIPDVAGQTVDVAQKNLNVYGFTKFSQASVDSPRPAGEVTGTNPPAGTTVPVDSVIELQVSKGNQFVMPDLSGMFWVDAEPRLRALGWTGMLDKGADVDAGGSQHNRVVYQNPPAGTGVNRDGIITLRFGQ
Assay: KINOMEscan
Format: binding
Put down the number, then write its unit next to it.

Sample answers from the record:
[
  {
    "COMPOUND": "CC(C)(C)c1cc(Nc2nc(N3CCC[C@H](N)C3)ncc2C(N)=O)cc(C(C)(C)C)c1 [Compound 14]",
    "remaining binding at 1 µM": "97%"
  },
  {
    "COMPOUND": "NC(=O)c1cnc(N2CCC[C@H](N)C2)nc1Nc1cccc(C(F)(F)F)c1 [Compound 8]",
    "remaining binding at 1 µM": "84%"
  },
  {
    "COMPOUND": "CC(C)c1cc(Nc2nc(N3CCC[C@H](N)C3)ncc2C(N)=O)cc(C(C)C)n1 [Compound 19]",
    "remaining binding at 1 µM": "83%"
  }
]

Attention now turns to another entry.
[in] Would you mind telling me what remaining binding at 1 µM value was observed for CC(C)(C#N)c1cc(Nc2nc(N3CCC[C@H](N)C3)ncc2C(N)=O)cc(C(C)(C)C#N)c1 [Compound 18] ?
[out] 84%
